Source of measurements: patent US20250355001A1

Test system: hT40, dGA, dGAE and truncated tau fragments
method.notes: Binding ELISA / epitope mapping of anti-tau scAbs with truncated tau proteins and 13mer peptides
Parameters: species or system human
test.context: Table 17; 'C' group scAbs; incl. 13mer peptides
metric: Shortest region bound on hT40

Which Shortest region bound on hT40 value belongs to CB2: anti-tau clone, Tables 2 and 10; SEQ ID NO: 369 (protein, CB2 amino acid sequence) scFv: QVQLQESGPSLVKPSQTLSLTCTVSGFSLSTNSVGWVRQAPGKAPEWVAGIDTDGEEGFNPVLKSRLSITRDTSKSQVSLSLSNVTSEDTAVYYCGRSYRTDGLAYGYVQAIDYWGPGLLVTISSEGKSSGASGESKVDDQSVLTQPSSVSGSPGQTVSITCSGSYIGSSGVGWFQQLPGSGLRTIIVASDGRPSGVPDRFSMSKSGNTATLTISSLQAEDEADYFCGSSDRTQYTGLFGSGTRLTVLG ?
359-391
